# melting point per record follows
Where a name gives a salt, the structure may show the parent alone.

# count of solved cases: 5
molecule	melting point
Cc1nc2ccc3c(c2o1)OC(CN1CCC(n2c(=O)[nH]c4ccccc42)CC1)CO3 (stereo not drawn)	218 to 220 °C
Cc1nc2ccc3c(c2o1)O[C@@H](CN1CC=C(c2cccc(C(F)(F)F)c2)CC1)CO3 (as salt: fumarate)	170 to 173 °C
Cc1nc2ccc3c(c2o1)OC(CN1CCCCC1)CO3 (stereo not drawn) (as salt: fumarate)	109 to 112 °C
Cc1nc2ccc3c(c2o1)OC(CN1CCC(C(=O)c2ccc(F)cc2)CC1)CO3 (stereo not drawn) (as salt: fumarate)	229 to 230 °C
Cc1nc2ccc3c(c2o1)OC(CN1CCC(O)(c2cccc(C(F)(F)F)c2)CC1)CO3 (stereo not drawn)	148 to 151 °C

melting point recorded for this molecule, Cc1nc2ccc3c(c2o1)OC(CN1CCC2(CC1)C(=O)NCN2c1ccccc1)CO3 (stereo not drawn) (as salt: fumarate) , is 240 °C

====

target_desc: cloned human 5-HT1A receptors (Homo sapiens)
Construct: expressed in transfected cells
test_method_notes: 35S-GTPγS binding assay, reversal of the standard agonist 8-OH-DPAT
Type: biochemical
assay_setup: 35S-GTPγS binding, membranes with cloned human 5-HT1A receptors; antagonist potency; read-out: 5-HT1A Function IC50
observed_property: IC50 (nM)
Write the value in nM as a bare number.

molecule	test_value
Cc1nc2ccc3c(c2o1)OC(CN1CCC2(CC1)C(=O)NCN2c1ccccc1)CO3 (centres unmarked)	1050

`Cc1nc2ccc3c(c2o1)O[C@@H](CN1CC=C(c2cccc(C(F)(F)F)c2)CC1)CO3` has a reported IC50 of 798

====

log10 Ki overview
target_desc: human 5-HT1A receptors (Homo sapiens, UniProt P08908)
Sequence (P08908 1-422): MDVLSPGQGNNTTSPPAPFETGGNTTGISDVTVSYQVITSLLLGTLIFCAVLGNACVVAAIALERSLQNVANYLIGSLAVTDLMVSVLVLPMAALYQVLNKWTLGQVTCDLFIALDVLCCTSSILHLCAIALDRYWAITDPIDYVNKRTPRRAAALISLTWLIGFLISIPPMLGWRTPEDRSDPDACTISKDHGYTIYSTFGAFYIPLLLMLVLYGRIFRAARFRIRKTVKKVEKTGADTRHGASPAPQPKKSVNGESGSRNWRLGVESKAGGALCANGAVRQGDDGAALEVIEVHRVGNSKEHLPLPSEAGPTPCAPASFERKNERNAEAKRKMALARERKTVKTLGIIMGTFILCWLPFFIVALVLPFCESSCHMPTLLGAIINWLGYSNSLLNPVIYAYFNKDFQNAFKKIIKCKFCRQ
The base-10 logarithm of Ki, taken with Ki in nM, is what appears here.

compound	test_value
Cc1nc2ccc3c(c2o1)OC(CN1CCC(n2c(=O)[nH]c4ccccc42)CC1)CO3 (centres unmarked)	0.00
Cc1nc2ccc3c(c2o1)OC(CN1CCC2(CC1)C(=O)NCN2c1ccccc1)CO3 (centres unmarked)	-0.03
Cc1nc2ccc3c(c2o1)OC(CN1CCC(C(=O)c2ccc(F)cc2)CC1)CO3 (centres unmarked)	2.31

Reported log10 Ki for Cc1nc2ccc3c(c2o1)OC(CN1CCC(O)(c2cccc(C(F)(F)F)c2)CC1)CO3 (centres unmarked) was 0.81

`Cc1nc2ccc3c(c2o1)O[C@@H](CN1CC=C(c2cccc(C(F)(F)F)c2)CC1)CO3` yielded log10 Ki of 1.60

====

target_desc: cloned human 5-HT1A receptors (Homo sapiens, UniProt P08908)
Construct: expressed in transfected cells
Sequence (P08908 1-422): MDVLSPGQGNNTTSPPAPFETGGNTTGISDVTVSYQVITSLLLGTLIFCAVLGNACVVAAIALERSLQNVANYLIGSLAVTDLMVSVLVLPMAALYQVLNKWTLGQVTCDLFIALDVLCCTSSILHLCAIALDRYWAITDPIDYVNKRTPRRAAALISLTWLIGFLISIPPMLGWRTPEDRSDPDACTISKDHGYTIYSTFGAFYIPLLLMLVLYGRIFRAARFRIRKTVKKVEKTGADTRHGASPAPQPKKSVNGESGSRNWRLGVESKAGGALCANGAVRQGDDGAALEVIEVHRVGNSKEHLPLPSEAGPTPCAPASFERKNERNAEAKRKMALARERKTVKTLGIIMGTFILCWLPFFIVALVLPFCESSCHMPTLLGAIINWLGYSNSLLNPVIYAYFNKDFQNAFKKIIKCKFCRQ
test_method_notes: 35S-GTPγS binding assay, reversal of the standard agonist 8-OH-DPAT
Format: biochemical
assay_setup: 35S-GTPγS binding; value in parentheses
observed_property: 5-HT1A Function Imax (maximum inhibitory effect)
Output spec: single numeric token, no unit.

# count of solved cases: 2
compound	target_desc	test_value
Cc1nc2ccc3c(c2o1)OC(CN1CCC2(CC1)C(=O)NCN2c1ccccc1)CO3 (stereo not shown) [Example 1]	cloned human 5-HT1A receptors (Homo sapiens, UniProt P08908)	60.0
Cc1nc2ccc3c(c2o1)O[C@@H](CN1CC=C(c2cccc(C(F)(F)F)c2)CC1)CO3 [Example 5]	cloned human 5-HT1A receptors (Homo sapiens, UniProt P08908)	97.0

Read the next record carefully.
The compound Cc1nc2ccc3c(c2o1)OC(CN1CCC(n2c(=O)[nH]c4ccccc42)CC1)CO3 (stereo not shown) [Example 2] showed 5-HT1A Function Imax (maximum inhibitory effect) equal to 42.0
